Below is a list of entries, each paired with its recorded Max. Solubility value.
- experiment_notes: Surfactant solubility in hydrofluoroether (HFE) solvents by visual clarity
- Assay type: physicochemical
- details: PF-7600, room temperature (23° C.)
metric_name: Max. Solubility

O=S(=O)(NCCOCCO)C(F)(F)C(F)(F)C(F)(F)C(F)(F)F [H-FBS(EE) (III), C4F9SO2N(H)CH2CH2OCH2CH2OH]
>10 wt %
O=S(=O)(N(CCO)CCOCCO)C(F)(F)C(F)(F)C(F)(F)C(F)(F)F [FBSE(EE) (V), C4F9SO2N(CH2CH2OCH2CH2OH) (CH2CH2OH)]
>10 wt %
CC(O)CN(CCO)S(=O)(=O)C(F)(F)C(F)(F)C(F)(F)C(F)(F)F (stereo not drawn)
>10 wt %
